# System: PTC (colon)
# measurement-description: MTT cytotoxicity assay, PTC cells
# Assay type: cell-based, human
# experimental-conditions: human, 48 hours, 1 μM
Starred links: 1 amine or outer side, 2 acyl side, 3 side chain; linkers in the order of their positions; H or OH if unused. Non-standard residues stand in square brackets, D forms with d. Residues, ends and D or L forms follow the SMILES beside them. 2Furoyl(5-aminomethyl) = O=C(c1ccc(CN[*:1])o1)[*:2]; X2 = O=C([C@@H]1CC[C@H](CN[*:1])O1)[*:2]
Entry flag: condition met if Percent Cytotoxicity reaches 20%; condition not met if it does not.

[[record]]
compound = "CSCC[C@H](N)C(=O)NC[C@H]1CC[C@@H](C(=O)N[C@@H](Cc2ccc(O)cc2)C(=O)N[C@@H](CC(C)C)C(=O)O)O1"
group_label = "condition not met"

[[record]]
compound = "CSCC[C@H](NC(=O)[C@@H](N)CC(C)C)C(=O)N[C@@H](Cc1ccc(O)cc1)C(=O)NC[C@H]1CC[C@@H](C(=O)N[C@@H](Cc2ccc(O)cc2)C(=O)N[C@@H](CC(C)C)C(=O)N[C@@H](CCCCN)C(=O)O)O1 [SEQ ID NO: 13, Leu-Met-Tyr-Saa4-Tyr-Leu-Lys] (H-LMY[X2]YLK-OH)"
group_label = "condition met"

[[record]]
compound = "CSCC[C@H](NC(=O)[C@@H](N)CC(C)C)C(=O)NCc1ccc(C(=O)N[C@@H](Cc2ccc(O)cc2)C(=O)N[C@@H](CC(C)C)C(=O)N[C@@H](CCCCN)C(=O)O)o1 [SEQ ID NO: 18, Leu-Met-Saa1-Tyr-Leu-Lys] (H-LM[2Furoyl(5-aminomethyl)]YLK-OH)"
group_label = "condition met"

[[record]]
compound = "CSCC[C@H](N)C(=O)NCc1ccc(C(=O)N[C@@H](Cc2ccc(O)cc2)C(=O)N[C@@H](CC(C)C)C(=O)O)o1"
group_label = "condition not met"


Consider the record given below.
*Q* Answer whether Percent Cytotoxicity of CSCC[C@H](NC(=O)[C@@H](N)CC(C)C)C(=O)N[C@@H](Cc1ccc(O)cc1)C(=O)NCc1ccc(C(=O)N[C@@H](Cc2ccc(O)cc2)C(=O)N[C@@H](CC(C)C)C(=O)N[C@@H](CCCCN)C(=O)O)o1 [SEQ ID NO: 10, Leu-Met-Tyr-Saa1-Tyr-Leu-Lys] (H-LMY[2Furoyl(5-aminomethyl)]YLK-OH) is greater than or equal to 20%.
*A* condition met

---

Attribute: Percent Cytotoxicity
# Tested on: KB (oral)
# measurement-description: MTT cytotoxicity assay, KB cells
# Format: cell-based, human
# experimental-conditions: human, 48 hours, 100 nM
Starred links: 1 amine or outer side, 2 acyl side, 3 side chain; linkers in the order of their positions; H or OH if unused. Non-standard residues stand in square brackets, D forms with d. Residues, ends and D or L forms follow the SMILES beside them. 2Furoyl(5-aminomethyl) = O=C(c1ccc(CN[*:1])o1)[*:2]; X1 = O=C(C1CCC(CN[*:1])O1)[*:2]
Report as: number unit

[[record]]
compound = "CSCC[C@H](NC(=O)[C@@H](N)CC(C)C)C(=O)NCc1ccc(C(=O)N[C@@H](Cc2ccc(O)cc2)C(=O)N[C@@H](CC(C)C)C(=O)N[C@@H](CCCCN)C(=O)O)o1 [SEQ ID NO: 18, Leu-Met-Saa1-Tyr-Leu-Lys] (H-LM[2Furoyl(5-aminomethyl)]YLK-OH)"
assay_readout = "Percent Cytotoxicity"
result_value = "14.0 ± 1.0%"


*Q* Look up and report measured Percent Cytotoxicity (KB (oral)) for the following compound: CSCC[C@H](NC(=O)[C@@H](N)CC(C)C)C(=O)N[C@@H](Cc1ccc(O)cc1)C(=O)NCC1CCC(C(=O)N[C@@H](Cc2ccc(O)cc2)C(=O)N[C@@H](CC(C)C)C(=O)N[C@@H](CCCCN)C(=O)O)O1 (stereo partly drawn) [SEQ ID NO: 12, Leu-Met-Tyr-Saa3-Tyr-Leu-Lys] (H-LMY[X1]YLK-OH)
*A* 33.2 ± 0.4%

*Q* Look up and report measured Percent Cytotoxicity (KB (oral)) for the following compound: CSCC[C@H](NC(=O)[C@@H](N)CC(C)C)C(=O)N[C@@H](Cc1ccc(O)cc1)C(=O)NC[C@H]1O[C@H](C(=O)N[C@H](C(=O)N[C@@H](Cc2ccc(O)cc2)C(=O)N[C@@H](CC(C)C)C(=O)N[C@@H](CCCCN)C(=O)O)[C@@H](C)O)[C@@H](OCc2ccccc2)[C@@H]1OCc1ccccc1
*A* 14.9 ± 1.1%

*Q* Look up and report measured Percent Cytotoxicity (KB (oral)) for the following compound: CSCC[C@H](NC(=O)[C@@H](N)CC(C)C)C(=O)N[C@@H](Cc1ccc(O)cc1)C(=O)NCc1ccc(C(=O)N[C@@H](Cc2ccc(O)cc2)C(=O)N[C@@H](CC(C)C)C(=O)N[C@@H](CCCCN)C(=O)O)o1 [SEQ ID NO: 10, Leu-Met-Tyr-Saa1-Tyr-Leu-Lys] (H-LMY[2Furoyl(5-aminomethyl)]YLK-OH)
*A* 29.6 ± 0.7%
